- Tested on: MCF7
- test name: Antiproliferative activity against human MCF7 cells after 72 hrs by MTT assay
- Assay type: functional, cell-based
- assay context: MCF7, 72 h
pIC50: −log10 of the molar value.
property: pIC50

>  <compound>
C[C@]12[C@H](O)C[C@H]3[C@@H](CC[C@H]4C[C@H]5O[C@@H]6O[C@H](CO)C[C@H](O)[C@]6(O)O[C@@H]5C[C@@]43C=O)[C@@]1(O)CC[C@@H]2C1=CC(=O)OC1

>  <property>
pIC50

>  <numeric readout>
5.55

$$$$
>  <compound>
C[C@@H]1C[C@H](O)[C@]2(O)O[C@@H]3C[C@@]4(C=O)[C@@H](CC[C@@H]5[C@@H]4C[C@@H](O)[C@]4(C)[C@@H](C6=CC(=O)OC6)[C@H](O)C[C@]54O)C[C@H]3O[C@@H]2O1

>  <property>
pIC50

>  <numeric readout>
5.15

$$$$
>  <compound>
C[C@]12CC[C@H]3[C@@H](CC[C@H]4C[C@@H](O)CC[C@@]43CO)[C@@]1(O)CC[C@@H]2C1=CC(=O)OC1

>  <property>
pIC50

>  <numeric readout>
5.15

$$$$
>  <compound>
C[C@]12[C@H](O)C[C@H]3[C@@H](CC[C@H]4C[C@H]5O[C@@H]6O[C@H](CO)C[C@@H](O)[C@]6(O)O[C@@H]5C[C@@]43CO)[C@@]1(O)CC[C@@H]2C1=CC(=O)OC1 [GHALAKINOSIDE]

>  <property>
pIC50

>  <numeric readout>
6.22

$$$$
>  <compound>
C[C@]12CC[C@H](O)C[C@@H]1CC[C@@H]1[C@@H]2CC[C@]2(C)[C@@H](C3=CC(=O)OC3)CC[C@]12O

>  <property>
pIC50

>  <numeric readout>
5.22

$$$$

----------
- Tested on: U-251
- test name: Antiproliferative activity against human U251MG cells after 72 hrs by MTT assay
- Format: functional, cell-based
- assay context: U-251, 72 h
pIC50: −log10 of the molar value.

>  <compound>
C[C@]12CC[C@H](O[C@@H]3O[C@H](CO)[C@@H](O)[C@H](O)[C@H]3O)C[C@@H]1CC[C@@H]1[C@@H]2CC[C@]2(C)[C@@H](C3=CC(=O)OC3)CC[C@]12O

>  <pIC50>
5.10

$$$$
>  <compound>
C[C@@H]1C[C@H](O)[C@]2(O)O[C@@H]3C[C@@]4(C=O)[C@@H](CC[C@@H]5[C@@H]4C[C@@H](O)[C@]4(C)[C@@H](C6=CC(=O)OC6)CC[C@]54O)C[C@H]3O[C@@H]2O1

>  <pIC50>
6.00

$$$$
>  <compound>
C[C@]12CC[C@H]3[C@@H](CC[C@H]4C[C@H]5O[C@@H]6O[C@H](CO)C[C@@H](O)[C@]6(O)O[C@@H]5C[C@@]43CO)[C@@]1(O)CC[C@@H]2C1=CC(=O)OC1

>  <pIC50>
5.92

$$$$
>  <compound>
C[C@]12[C@H](O)C[C@H]3[C@@H](CC[C@H]4C[C@@H](O)CC[C@@]43CO)[C@@]1(O)CC[C@@H]2C1=CC(=O)OC1

>  <pIC50>
5.30

$$$$
>  <compound>
C[C@@H]1C[C@@H](O)[C@]2(O)O[C@@H]3C[C@@]4(C=O)[C@@H](CC[C@@H]5[C@@H]4CC[C@]4(C)[C@@H](C6=CC(=O)OC6)CC[C@]54O)C[C@H]3O[C@@H]2O1

>  <pIC50>
6.05

$$$$
>  <compound>
C[C@@H]1C[C@@H](O[C@@H]2O[C@H](CO)[C@@H](O)[C@H](O)[C@H]2O)[C@]2(O)O[C@@H]3C[C@@]4(C=O)[C@@H](CC[C@@H]5[C@@H]4CC[C@]4(C)[C@@H](C6=CC(=O)OC6)CC[C@]54O)C[C@H]3O[C@@H]2O1

>  <pIC50>
5.36

$$$$
>  <compound>
C[C@@H]1C[C@@H](O)[C@]2(O)O[C@@H]3C[C@@]4(CO)[C@@H](CC[C@@H]5[C@@H]4C[C@@H](O)[C@]4(C)[C@@H](C6=CC(=O)OC6)CC[C@]54O)C[C@H]3O[C@@H]2O1

>  <pIC50>
5.10

$$$$
>  <compound>
C[C@]12CC[C@H]3[C@@H](CC[C@H]4C[C@@H](O)CC[C@@]43CO)[C@@]1(O)CC[C@@H]2C1=CC(=O)OC1

>  <pIC50>
5.30

$$$$
>  <compound>
C[C@@H]1C[C@@H](O)[C@]2(O)O[C@@H]3C[C@@]4(C=O)[C@@H](CC[C@@H]5[C@@H]4C[C@@H](O)[C@]4(C)[C@@H](C6=CC(=O)OC6)CC[C@]54O)C[C@H]3O[C@@H]2O1

>  <pIC50>
5.28

$$$$
>  <compound>
C[C@@H]1C[C@H](O)[C@]2(O)O[C@@H]3C[C@@]4(C=O)[C@@H](CC[C@@H]5[C@@H]4C[C@@H](O)[C@]4(C)[C@@H](C6=CC(=O)OC6)[C@H](O)C[C@]54O)C[C@H]3O[C@@H]2O1

>  <pIC50>
5.82

$$$$
>  <compound>
CC(=O)O[C@@]12CO[C@@H]1C[C@H](O)[C@@]1(C)C(=O)[C@H](O)C3=C(C)[C@@H](OC(=O)[C@H](O)[C@@H](NC(=O)OC(C)(C)C)c4ccccc4)C[C@@](O)([C@@H](OC(=O)c4ccccc4)[C@H]21)C3(C)C [DOCETAXEL ANHYDROUS]

>  <pIC50>
9.15

$$$$
>  <compound>
C[C@]12CC[C@H](O)C[C@@H]1CC[C@@H]1[C@@H]2CC[C@]2(C)[C@@H](C3=CC(=O)OC3)CC[C@]12O

>  <pIC50>
5.22

$$$$
>  <compound>
C[C@]12CC[C@H]3[C@@H](CC[C@H]4C[C@H]5O[C@@H]6O[C@H](CO)C[C@H](O)[C@]6(O)O[C@@H]5C[C@@]43C=O)[C@@]1(O)CC[C@@H]2C1=CC(=O)OC1

>  <pIC50>
5.30

$$$$
>  <compound>
C[C@]12[C@H](O)C[C@H]3[C@@H](CC[C@H]4C[C@H]5O[C@@H]6O[C@H](CO)C[C@@H](O)[C@]6(O)O[C@@H]5C[C@@]43C=O)[C@@]1(O)CC[C@@H]2C1=CC(=O)OC1

>  <pIC50>
5.26

$$$$
>  <compound>
C[C@]12[C@H](O)C[C@H]3[C@@H](CC[C@H]4C[C@H]5O[C@@H]6O[C@H](CO)C[C@@H](O)[C@]6(O)O[C@@H]5C[C@@]43CO)[C@@]1(O)CC[C@@H]2C1=CC(=O)OC1 [GHALAKINOSIDE]

>  <pIC50>
5.28

$$$$
>  <compound>
CC(=O)O[C@@H]1C[C@]2(O)[C@@H]3CC[C@H]4C[C@H]5O[C@@H]6O[C@H](C)C[C@H](O)[C@]6(O)O[C@@H]5C[C@]4(C=O)[C@H]3C[C@@H](O)[C@]2(C)[C@H]1C1=CC(=O)OC1

>  <pIC50>
5.19

$$$$
>  <compound>
C[C@]12CC[C@H]3[C@@H](CC[C@H]4C[C@@H](O[C@@H]5O[C@H](CO)[C@@H](O)[C@H](O)[C@H]5O)CC[C@@]43CO)[C@@]1(O)CC[C@@H]2C1=CC(=O)OC1

>  <pIC50>
5.22

$$$$
>  <compound>
COc1cc(/C=C/C(=O)OC[C@H]2O[C@@H](O[C@H]3CC[C@@]4(C)[C@@H](CC[C@@H]5[C@@H]4CC[C@]4(C)[C@@H](C6=CC(=O)OC6)CC[C@]54O)C3)[C@H](O)[C@@H](O)[C@@H]2O)ccc1O

>  <pIC50>
5.24

$$$$
>  <compound>
C[C@]12[C@H](O)C[C@H]3[C@@H](CC[C@H]4C[C@H]5O[C@@H]6O[C@H](CO)C[C@H](O)[C@]6(O)O[C@@H]5C[C@@]43C=O)[C@@]1(O)CC[C@@H]2C1=CC(=O)OC1

>  <pIC50>
5.22

$$$$

----------
- Test system: PC-3
- test name: Antiproliferative activity against human PC3 cells after 72 hrs by MTT assay
- Type: functional, cell-based
- assay context: PC-3, 72 h
Field: label. Allowed values: satisfied (IC50 < 3 µM) or not satisfied (IC50 >= 3 µM).

>  <compound>
C[C@@H]1C[C@H](O)[C@]2(O)O[C@@H]3C[C@@]4(C=O)[C@@H](CC[C@@H]5[C@@H]4C[C@@H](O)[C@]4(C)[C@@H](C6=CC(=O)OC6)CC[C@]54O)C[C@H]3O[C@@H]2O1

>  <answer label>
satisfied

$$$$
>  <compound>
CC(=O)O[C@@H]1C[C@]2(O)[C@@H]3CC[C@H]4C[C@H]5O[C@@H]6O[C@H](C)C[C@H](O)[C@]6(O)O[C@@H]5C[C@]4(C=O)[C@H]3C[C@@H](O)[C@]2(C)[C@H]1C1=CC(=O)OC1

>  <answer label>
not satisfied

$$$$
>  <compound>
C[C@]12[C@H](O)C[C@H]3[C@@H](CC[C@H]4C[C@@H](O)CC[C@@]43CO)[C@@]1(O)CC[C@@H]2C1=CC(=O)OC1

>  <answer label>
not satisfied

$$$$
>  <compound>
CC(=O)O[C@@]12CO[C@@H]1C[C@H](O)[C@@]1(C)C(=O)[C@H](O)C3=C(C)[C@@H](OC(=O)[C@H](O)[C@@H](NC(=O)OC(C)(C)C)c4ccccc4)C[C@@](O)([C@@H](OC(=O)c4ccccc4)[C@H]21)C3(C)C [DOCETAXEL ANHYDROUS]

>  <answer label>
satisfied

$$$$
>  <compound>
C[C@]12CC[C@H]3[C@@H](CC[C@H]4C[C@@H](O)CC[C@@]43CO)[C@@]1(O)CC[C@@H]2C1=CC(=O)OC1

>  <answer label>
satisfied

$$$$
>  <compound>
C[C@@H]1C[C@@H](O)[C@]2(O)O[C@@H]3C[C@@]4(CO)[C@@H](CC[C@@H]5[C@@H]4C[C@@H](O)[C@]4(C)[C@@H](C6=CC(=O)OC6)CC[C@]54O)C[C@H]3O[C@@H]2O1

>  <answer label>
satisfied

$$$$
>  <compound>
C[C@]12CC[C@H](O[C@@H]3O[C@H](CO)[C@@H](O)[C@H](O)[C@H]3O)C[C@@H]1CC[C@@H]1[C@@H]2CC[C@]2(C)[C@@H](C3=CC(=O)OC3)CC[C@]12O

>  <answer label>
satisfied

$$$$
>  <compound>
C[C@]12[C@H](O)C[C@H]3[C@@H](CC[C@H]4C[C@H]5O[C@@H]6O[C@H](CO)C[C@@H](O)[C@]6(O)O[C@@H]5C[C@@]43C=O)[C@@]1(O)CC[C@@H]2C1=CC(=O)OC1

>  <answer label>
not satisfied

$$$$

Attribution: ChEMBL document CHEMBL4371101
